system: Plasmodium berghei; assay: Screen against P. berghei liver stage (PbLuc), transformed with Luciferase, at 2uM; format: functional, HepG2; conditions: tested at 2 uM
Screen size: about 68,000 compounds; about 2,700 (4%) showed an effect of 50% or more. The list comes from a sample in which strong results are over-represented; it also holds close analogues and randomly drawn compounds.
readout_kind: INHIBITION
Value and unit, in that order.

Examples with their reported INHIBITION follow.
[[record]]
compound = "COCCN1CC(Nc2nc(C3CCCC3)nc3c2cnn3C)CC1=O (stereo not drawn)"
readout_kind = "INHIBITION"
observed_value = "40.4%"

[[record]]
compound = "O=C(NC1CC1)[C@@H]1CCO[C@@H]2CCN(CC3CCC3)C[C@H]21"
readout_kind = "INHIBITION"
observed_value = "9.98%"

[[record]]
compound = "Cc1ncsc1CCN(C)C(=O)c1ccc(Cn2cnnn2)cc1"
readout_kind = "INHIBITION"
observed_value = "89.46%"


Short answer on Plasmodium berghei for c1ccc(CN2CCC(Cc3noc(C4CC4)n3)CC2)cc1 , INHIBITION: 17.33%

Kindly note: Plasmodium berghei, NC(=O)CN(CC(=O)NCCc1c(F)cccc1F)C1CCCC1 , INHIBITION value reported: 14.21%

Plasmodium berghei INHIBITION of Cn1cc(CN(C(=O)c2ccc(O)c(Cl)c2)C2CC2)cn1 is -33.15%

Hey, Plasmodium berghei data for CN(Cc1cccc(F)c1)C(=O)CN1CCCC1CCc1ccccc1 (stereo not drawn) : INHIBITION came out at 80.56%

INHIBITION value, target or system Plasmodium berghei, for O=C(c1ccoc1)N1C[C@H]2CC[C@@]3(N=C(c4ccccc4)NC3=O)[C@H]2C1 : -1.45%

Form field, INHIBITION with Plasmodium berghei, item CCc1nnc2ccc(N3CCN(S(=O)(=O)c4ccc(Cl)s4)CC3)nn12 : 52.31%

Readout INHIBITION for CN1CCCN(S(=O)(=O)c2cccc(C(=O)N3CCCCCC3)c2)CC1 , test system Plasmodium berghei, was 54.75%

Reading of INHIBITION for Cc1cncc(C(=O)N2CCN(c3cnn(C)c(=O)c3)CC2)c1 with Plasmodium berghei: 41.05%

Reported Plasmodium berghei INHIBITION for item N#CCCN(c1ccc(F)cc1)S(=O)(=O)CC1CCCCO1 (stereo not drawn) was -7.39%

Form field INHIBITION for item COc1cccc(C(=O)N2CCCC(CNS(C)(=O)=O)C2)c1 (stereo not drawn) on Plasmodium berghei: 2.74%

Simply: O=C(O)[C@]12CCCN(Cc3ccsc3)C[C@H]1CN(c1ncccn1)C2 , Plasmodium berghei, INHIBITION = 53.55%

Sample COCCN1CC(Nc2nc(C(C)C)nc3c2cnn3C)CC1=O (stereo not drawn) , system: Plasmodium berghei. Its INHIBITION is 57.34%

Assay Plasmodium berghei, sample O=C(NCC1CCCO1)c1nc2c(s1)CCCN2Cc1ccccc1 (stereo not drawn) , INHIBITION read: 29.3%

Sample CC(C)C(=O)N1CCC(CNc2nc(C(C)C)nc3c2cnn3C)CC1 , system: Plasmodium berghei. Its INHIBITION is 19.12%

Test item CN(Cc1cccc(F)c1)C(=O)CN1CCCC(Cn2cncn2)C1 (stereo not drawn) ; Plasmodium berghei; reported INHIBITION was 53.1%

Record CC1=CCN(S(=O)(=O)c2cccc(C(=O)N3CCCN(C)CC3)c2)CC1 ; system Plasmodium berghei; INHIBITION = 23.17%

# CC1CCN(S(=O)(=O)N2Cc3ccccc3C[C@H]2C(N)=O)CC1 with Plasmodium berghei: INHIBITION is 21.37%
